The measurements presented in this section are drawn from patent US20260098043A1.

Molecular target: human Cereblon WT (Homo sapiens, UniProt Q96SW2)
Construct: purchased
Test: Cereblon binding experiment (HTRF Human Cereblon Binding Kit, competition with XL665-labeled lenalidomide tracer)
Conditions: 3 h incubation at room temperature, 100% inhibition = 200 μM lenalidomide, read-out: IC50 (binding ability to Cereblon)
Measured Endpoint: IC50 (µM)
# value in µM; strip the unit string

### Prompt What measured IC50 goes with Cn1c(=O)n(C2CCC(=O)NC2=O)c2ccc3c(c21)CNCC3 (stereo not shown) [Compound 8, reference compound] ?
### Response 8.7

---

Test system: MV-4-11 cells
Experiment: Antiproliferative activity for MV-4-11 cells (CellTiter-Glo, 3 days)
Type: cell-based
Conditions: Homo sapiens, MV4-11, 72 h, read-out: IC50 (antiproliferative activity for MV-4-11 cells)
Measured Endpoint: pIC50
Answer as the number alone; pIC50 is minus log10 of concentration in mol/L.

### Prompt What measured pIC50 goes with Cc1sc2c(c1C)C(c1ccc(Cl)cc1)=N[C@@H](CC(=O)NCCCCCC(=O)NCc1ccc3ccc4c(c3c1)n(C)c(=O)n4C1CCC(=O)NC1=O)c1nnc(C)n1-2 (stereo partly shown) ?
### Response 8.42
